# Tested on: DU-145 prostate
# ASSAY COMMENT: NCI tumour cell line growth inhibition, 48 h
Where a SMILES comes first, the peptide text is derived from it. [ ]: non-standard residue; d: D form. The star is where a group is joined. AllylGly = C=CC[CH](N)C(=O)O; Boc = CC(C)(C)OC(=O)*; OtBu = CC(C)(C)O*
ASSAY METRIC: TGI

Example results:
COMPOUND	TGI
CCN(CC)CCCNc1cccc2c(SCc3ccccc3)ccnc12	3.49 µM
Cc1ccc(NC(=O)NC(=O)c2ccc([N+](=O)[O-])cc2[N+](=O)[O-])cc1Oc1ncc(Cl)cn1	> 100 µM
CC(C)(C)[Si](C)(C)OCC1OC(n2cnc3c(NC(=O)c4ccccc4)ncnc32)CC1O (configuration not stated)	> 100 µM
COc1cc(CCCOC(=O)/C=C/c2ccc(O)c(O)c2)cc(O)c1O	> 100 µM
Cc1ccc(-c2c(C#N)c(S)n(NS(=O)(=O)c3ccc(C)cc3)c(=O)c2C#N)cc1	> 100 µM

Quick batch: TGI for everything below.
1. CN1CCCNc2c(c(=O)c2=O)NCCCN(C)CCCNc2c(c(=O)c2=O)NCCCN(C)CCCNc2c(c(=O)c2=O)NCCCN(C)CCCNc2c(c(=O)c2=O)NCCCN(C)CCCNc2c(c(=O)c2=O)NCCCN(C)CCCNc2c(c(=O)c2=O)NCCCN(C)CCCNc2c(c(=O)c2=O)NCCC1
2. O=C(OCc1ccccc1)N1CCN(/[N+]([O-])=N/Oc2ccc([N+](=O)[O-])cc2[N+](=O)[O-])CC1
3. O=P(Oc1ccccc1)(Oc1ccccc1)Oc1c[nH]c2ccccc12
4. C=CCC(NC(=O)C(CC(=O)OC(C)(C)C)NC(=O)OC(C)(C)C)C(=O)OC (configuration not stated) (Boc-Asp(OtBu)-[AllylGly]-OMe; configuration not given here)
5. CSc1cnn(CCC#N)c(=O)n1
6. CN(C)CCNc1ccc2c(=O)n(CCN(C)C)c(=O)n3c4ccc([N+](=O)[O-])cc4c(=O)c1c23

## Result
1: 5.9 µM; 2: 18.7 µM; 3: > 100 µM; 4: > 100 µM; 5: > 100 µM; 6: 6.54 µM

For every item below, please supply its TGI.
1. COc1ccc(NC(=O)n2nc(N)c3ccccc32)cc1OC
2. O=C(NNC(=S)Nc1ccccc1)c1ccccc1Nc1ccccc1C(=O)NNC(=S)Nc1ccccc1
3. N#Cc1c(-c2ccc([N+](=O)[O-])cc2)cc(-c2ccc(Nc3ccnc4cc(C(F)(F)F)ccc34)cc2)nc1N
4. Cc1cc(C)nc(NS(=O)(=O)c2ccc(Nc3c4ccccc4nc4c(C(=O)NCCCN(CCO)CCO)cccc34)cc2)n1
5. CCSCC(N)C(=O)O (configuration not stated)
6. CCCc1c(OC)c(=O)c2c(OC)cc(OC)c3c4c(OC)cc(OC)c5c(=O)c(OC)c(CCC)c(c1c23)c54

## Result
> 100 µM
> 100 µM
> 43.3 µM
> 100 µM
> 100 µM
24.6 µM

---

Give TGI for every item shown.
# System: CAKI-1 renal
# ASSAY COMMENT: NCI tumour cell line growth inhibition, 48 h

Below: 6 compounds and their reported TGI.
COMPOUND	TGI
CC(C)[C@@]12C[C@@H](OC(=O)[C@H]3CO3)[C@@](C)(O1)[C@@H]1CC[C@@H](C)[C@H]1[C@@H]2OC(=O)/C=C/c1ccccc1	> 100 µM
CC(=O)C1CC=C(C)CC1 (stereo not given)	> 100 µM
CCCCCCCCCCCCCCCCCC1=NCCN1CS(=O)(=O)O	22.6 µM
Cc1ccc(C2NC(=S)NC3=C2CCOc2c3ccc3ccccc23)cc1 (stereo not given)	11.7 µM
S=C(N/N=C(/c1ccccc1)c1ccccn1)Nc1ccccc1Cl	11.5 µM
COc1cc(/C=C/c2cc(/C=C/c3ccc(O)c(OC)c3)n(-c3c(C)cccc3C)c(=O)n2)ccc1O	14.9 µM

Give TGI for each of the items listed below.
1. Cc1cc2c(=O)n(-c3ccc(F)cc3)c(C)nc2c(C(=O)O)c1C
2. CC(C)(C)NN=C1C(C)(C)C(=NNC(C)(C)C)C1(C)C
3. C/C(=N\NC(=O)c1ccncc1)c1ccc2ccccc2c1O
4. COc1cc(CCCOC(=O)/C=C/c2ccc(O)c(O)c2)cc(O)c1O

## Result
1. > 100 µM
2. > 100 µM
3. > 84.5 µM
4. > 100 µM
